Target: human full-length MKNK1 (Homo sapiens, UniProt Q9BUB5, T385D)
Sequence (Q9BUB5 1-424 isoform Q9BUB5-2 T344D): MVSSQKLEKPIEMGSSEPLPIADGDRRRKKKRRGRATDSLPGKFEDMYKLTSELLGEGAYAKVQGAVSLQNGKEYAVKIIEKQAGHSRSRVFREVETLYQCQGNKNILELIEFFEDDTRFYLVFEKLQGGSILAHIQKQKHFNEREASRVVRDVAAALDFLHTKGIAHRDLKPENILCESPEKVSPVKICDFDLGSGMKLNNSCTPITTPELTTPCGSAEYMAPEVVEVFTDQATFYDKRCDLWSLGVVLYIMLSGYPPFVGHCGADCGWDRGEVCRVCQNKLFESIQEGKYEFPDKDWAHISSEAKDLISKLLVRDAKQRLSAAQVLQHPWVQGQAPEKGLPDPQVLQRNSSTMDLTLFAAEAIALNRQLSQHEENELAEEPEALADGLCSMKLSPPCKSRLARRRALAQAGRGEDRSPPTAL
Experiment: MKNK1 kinase high ATP assay (TR-FRET)
Conditions: high ATP (2 mM), 15 min preincubation with enzyme, GST-MKNK1 (T344D)
Task for the reader: assign each of the following molecules its reported pIC50.
Scale explanation: pIC50 corresponds to minus log10 of a concentration expressed in moles per litre.

Supply measured pIC50 of COc1ccc(Cl)cc1Nc1ncnc2[nH]c3c(c12)CC(C(=O)NCCCS(C)(=O)=O)CC3 (racemic) in your reply.
8.00

Supply measured pIC50 of CC(C)NC(=O)C1CCc2[nH]c3ncnc(Nc4ccccc4N4CCOCC4)c3c2C1 (racemic) in your reply.
6.57

Supply measured pIC50 of CN1CCN(C(=O)C2CCc3[nH]c4ncnc(Nc5ccccc5OC5CCCC5)c4c3C2)CC1 (racemic) in your reply.
6.74

Supply measured pIC50 of CC(=O)c1ccc(Nc2ncnc3[nH]c4c(c23)CC(C(=O)NCCCS(C)(=O)=O)CC4)cc1 (racemic) in your reply.
6.47

Supply measured pIC50 of c1nc(Nc2ccc3[nH]ncc3c2)c2c3c([nH]c2n1)CCSC3 in your reply.
7.37

Supply measured pIC50 of [O-][S+]1CCc2[nH]c3ncnc(Nc4ccc5[nH]ncc5c4)c3c2C1 (racemic) in your reply.
6.72

Supply measured pIC50 of COc1ccc(C(F)(F)F)cc1Nc1ncnc2[nH]c3c(c12)CC(C(=O)O)CC3 (racemic) in your reply.
6.40

====

Molecular target: human full-length MKNK1 (Homo sapiens, UniProt Q9BUB5, T385D)
Experiment: MKNK1 kinase high ATP assay (TR-FRET)
Details: high ATP (2 mM), 15 min preincubation with enzyme, GST-MKNK1 (T344D)
Task for the reader: assign each of the following molecules its reported IC50.
Please reply with the bare figure in nM and do not write the unit itself.

Give the observed IC50 of COc1cc2[nH]ncc2cc1Nc1ncnc2[nH]c3c(c12)CC(C(=O)N1CCN(C)CC1)CC3 (racemic) for human full-length MKNK1 (Homo sapiens, UniProt Q9BUB5, T385D).
4

Give the observed IC50 of CCOC(=O)C1CCc2[nH]c3ncnc(Nc4cc5cn[nH]c5cc4OC)c3c2C1 (racemic) for human full-length MKNK1 (Homo sapiens, UniProt Q9BUB5, T385D).
13

Give the observed IC50 of c1nc(Nc2ccc3[nH]ncc3c2)c2c3c([nH]c2n1)CCCCC3 for human full-length MKNK1 (Homo sapiens, UniProt Q9BUB5, T385D).
45

Give the observed IC50 of O=C(C1CCc2[nH]c3ncnc(Nc4ccc5[nH]ncc5c4)c3c2C1)N1CC(F)(F)C1 (racemic) for human full-length MKNK1 (Homo sapiens, UniProt Q9BUB5, T385D).
46

Give the observed IC50 of O=c1[nH]c2ccc(Nc3ncnc4[nH]c5c(c34)CCCC5)cc2[nH]1 for human full-length MKNK1 (Homo sapiens, UniProt Q9BUB5, T385D).
1790

Give the observed IC50 of O=C(Nc1ccccc1)C1CCc2[nH]c3ncnc(Nc4ccc5[nH]ncc5c4)c3c2C1 (racemic) for human full-length MKNK1 (Homo sapiens, UniProt Q9BUB5, T385D).
15

Give the observed IC50 of CS(=O)(=O)CCCNC(=O)C1CCc2[nH]c3ncnc(Nc4cccc5c4CCCC5)c3c2C1 (racemic) for human full-length MKNK1 (Homo sapiens, UniProt Q9BUB5, T385D).
1170

Give the observed IC50 of Clc1ccc2c(c1)CCN2c1ncnc2[nH]c3c(c12)CCCC3 for human full-length MKNK1 (Homo sapiens, UniProt Q9BUB5, T385D).
4290

Give the observed IC50 of COc1cccc(Nc2ncnc3[nH]c4c(c23)CC(C(=O)NCCCS(C)(=O)=O)CC4)c1OC (racemic) for human full-length MKNK1 (Homo sapiens, UniProt Q9BUB5, T385D).
1160

Give the observed IC50 of COc1cc2[nH]ncc2cc1Nc1ncnc2[nH]c3c(c12)CC(C(=O)NCCCS(C)(=O)=O)CC3 (racemic) for human full-length MKNK1 (Homo sapiens, UniProt Q9BUB5, T385D).
4

Give the observed IC50 of O=S1(=O)CCc2[nH]c3ncnc(Nc4ccc5[nH]ncc5c4)c3c2C1 for human full-length MKNK1 (Homo sapiens, UniProt Q9BUB5, T385D).
62

Give the observed IC50 of O=C(NC1CC1)C1CCc2[nH]c3ncnc(Nc4ccc5[nH]ncc5c4)c3c2C1 (racemic) for human full-length MKNK1 (Homo sapiens, UniProt Q9BUB5, T385D).
19

Give the observed IC50 of COc1ccc(C(F)(F)F)cc1Nc1ncnc2[nH]c3c(c12)CC(C(=O)Nc1ccccc1)CC3 (racemic) for human full-length MKNK1 (Homo sapiens, UniProt Q9BUB5, T385D).
3400

Give the observed IC50 of CS(=O)(=O)CCCNC(=O)C1CCc2[nH]c3ncnc(Nc4ccc(OC(F)F)cc4)c3c2C1 (racemic) for human full-length MKNK1 (Homo sapiens, UniProt Q9BUB5, T385D).
2750

Give the observed IC50 of Cc1cc(=O)oc2cc(Nc3ncnc4[nH]c5c(c34)CC(C(=O)NCCCS(C)(=O)=O)CC5)ccc12 (racemic) for human full-length MKNK1 (Homo sapiens, UniProt Q9BUB5, T385D).
394

====

Target: human full-length MKNK1 (Homo sapiens, UniProt Q9BUB5, T385D)
Experiment: MKNK1 kinase high ATP assay (TR-FRET)
Conditions: high ATP (2 mM), 15 min preincubation with enzyme, GST-MKNK1 (T344D)
Property Label: pIC50
Scale explanation: pIC50 corresponds to minus log10 of a concentration expressed in moles per litre.

Supply measured pIC50 of O=c1[nH]c2cc(Cl)c(Nc3ncnc4[nH]c5c(c34)CCCC5)cc2s1 [Example 236] in your reply.
7.26

Supply measured pIC50 of COc1cc2nc(C)sc2cc1Nc1ncnc2[nH]c3c(c12)CC(C(=O)NCCCS(C)(=O)=O)CC3 (racemic) [Example 68] in your reply.
5.21

Supply measured pIC50 of COc1ccc(Cl)cc1Nc1ncnc2[nH]c3c(c12)CC(C(=O)O)CC3 (racemic) [Example 235] in your reply.
6.80

Supply measured pIC50 of Cc1nc2cc(Nc3ncnc4[nH]c5c(c34)CC(C(=O)NCCCS(C)(=O)=O)CC5)ccc2s1 (racemic) [Example 50] in your reply.
5.19

Supply measured pIC50 of CC(C)Oc1ccc(Cl)cc1Nc1ncnc2[nH]c3c(c12)CCCC3 [Example 124] in your reply.
5.76

Supply measured pIC50 of COc1cc(Nc2ncnc3[nH]c4c(c23)CC(C(=O)NCCCS(C)(=O)=O)CC4)ccc1F (racemic) [Example 34] in your reply.
6.51

Supply measured pIC50 of CS(=O)(=O)CCCNC(=O)C1CCc2[nH]c3ncnc(Nc4ccccc4OC(F)F)c3c2C1 (racemic) [Example 154] in your reply.
6.33

Supply measured pIC50 of CS(=O)(=O)CCCNC(=O)C1CCc2[nH]c3ncnc(Nc4ccc5ncsc5c4)c3c2C1 (racemic) [Example 49] in your reply.
6.64

Supply measured pIC50 of CCOC(=O)C1CCc2[nH]c3ncnc(Nc4ccccc4OC4CCCC4)c3c2C1 (racemic) [Example 170] in your reply.
5.72

Supply measured pIC50 of COc1cccc(C)c1Nc1ncnc2[nH]c3c(c12)CC(C(=O)NCCCS(C)(=O)=O)CC3 (racemic) [Example 75] in your reply.
5.12

Supply measured pIC50 of O=C(O)C1CCc2[nH]c3ncnc(Nc4ccc(Cl)c(Cl)c4)c3c2C1 (racemic) [Example 233] in your reply.
6.83

Supply measured pIC50 of CC(C)Oc1cc(F)ccc1Nc1ncnc2[nH]c3c(c12)CC(C(=O)O)CC3 (racemic) [Example 183] in your reply.
6.39

Supply measured pIC50 of COc1cc(Cl)c(C)cc1Nc1ncnc2[nH]c3c(c12)CC(C(=O)NCCCS(C)(=O)=O)CC3 (racemic) [Example 162] in your reply.
6.92

Supply measured pIC50 of COc1ccc(Cl)cc1Nc1ncnc2[nH]c3c(c12)CC(C(=O)NC(C)C)CC3 (racemic) [Example 224] in your reply.
7.40

Supply measured pIC50 of CCOC(=O)C1CCc2[nH]c3ncnc(Nc4cc(Cl)ccc4OC)c3c2C1 (racemic) [Example 175] in your reply.
6.44

====

Target: human full-length MKNK1 (Homo sapiens, UniProt Q9BUB5, T385D)
Construct: purchased Carna Biosciences 02-145; host or cells: insect cells, baculovirus expression system
Assay: MKNK1 kinase high ATP assay (TR-FRET)
Type: biochemical
Conditions: high ATP (2 mM), 15 min preincubation with enzyme, GST-MKNK1 (T344D)
pIC50: −log10 of the molar value.
So basically: pIC50 at 6 or higher? That is t. Lower than 6? That is f.

Decide: pIC50 of CCNC(=O)C1CCc2[nH]c3ncnc(Nc4cc(Cl)c(Cl)cc4OC)c3c2C1 (racemic) >= 6?
t

Decide: pIC50 of CC(C)Oc1cc2[nH]ncc2cc1Nc1ncnc2[nH]c3c(c12)CC(F)(F)CC3 >= 6?
t

Decide: pIC50 of Cc1ccc(Nc2ncnc3[nH]c4c(c23)CC(C(=O)NCCCS(C)(=O)=O)CC4)c(O)c1 (racemic) >= 6?
f

Decide: pIC50 of CC(C)Oc1cc(F)ccc1Nc1ncnc2[nH]c3c(c12)CN(Cc1ccccc1)CC3 >= 6?
f

Decide: pIC50 of CC(C)NC(=O)C1CCc2[nH]c3ncnc(Nc4ccc(F)cc4OC(C)C)c3c2C1 (racemic) >= 6?
t

Decide: pIC50 of CNC(=O)C1CCc2[nH]c3ncnc(Nc4cc5cn[nH]c5cc4OC)c3c2C1 (racemic) >= 6?
t

Decide: pIC50 of COCC1(OC)CCc2[nH]c3ncnc(Nc4cc(Cl)ccc4OC)c3c2C1 (racemic) >= 6?
t

Decide: pIC50 of CCOc1cc(Cl)ccc1Nc1ncnc2[nH]c3c(c12)CC(C(=O)NCCCS(C)(=O)=O)CC3 (racemic) >= 6?
t

Decide: pIC50 of COc1ccc(Nc2ncnc3[nH]c4c(c23)CC(C(=O)NCCCS(C)(=O)=O)CC4)c(OC)c1 (racemic) >= 6?
f

Decide: pIC50 of c1ccc(OC2CCCC2)c(Nc2ncnc3[nH]c4c(c23)CCCC4)c1 >= 6?
f

Decide: pIC50 of COc1ccc(C(F)(F)F)cc1Nc1ncnc2[nH]c3c(c12)CC(C(=O)N1CCN(C)CC1)CC3 (racemic) >= 6?
t

Decide: pIC50 of O=C(Nc1ccccc1)C1CCc2[nH]c3ncnc(Nc4ccccc4N4CCOCC4)c3c2C1 (racemic) >= 6?
t

Decide: pIC50 of COc1cc2[nH]c(=O)[nH]c2cc1Nc1ncnc2[nH]c3c(c12)CC(C(=O)NCCCS(C)(=O)=O)CC3 (racemic) >= 6?
t

Decide: pIC50 of CS(=O)(=O)CCCNC(=O)C1CCc2[nH]c3ncnc(Nc4ccc5[nH]c(=S)sc5c4)c3c2C1 (racemic) >= 6?
t

Decide: pIC50 of COc1ccc(C(F)(F)F)cc1Nc1ncnc2[nH]c3c(c12)CC(F)(F)CC3 >= 6?
f

Decide: pIC50 of COc1ccc(F)cc1Nc1ncnc2[nH]c3c(c12)CC(C(=O)NCc1ccccc1)CC3 (racemic) >= 6?
t

Decide: pIC50 of COc1ccc(F)cc1Nc1ncnc2[nH]c3c(c12)CC(C(=O)NCCC(F)(F)F)CC3 (racemic) >= 6?
t

Decide: pIC50 of c1ccc2c(c1)CCN2c1ncnc2[nH]c3c(c12)CCCC3 >= 6?
f

Decide: pIC50 of CC(C)Oc1ccc(Nc2ncnc3[nH]c4c(c23)CC(C(=O)NCCCS(C)(=O)=O)CC4)cc1 (racemic) >= 6?
f

Decide: pIC50 of COc1ccc(F)cc1Nc1ncnc2[nH]c3c(c12)CC(C(=O)Nc1ccccc1)CC3 (racemic) >= 6?
f

Decide: pIC50 of COc1cc(Cl)c(Cl)cc1Nc1ncnc2[nH]c3c(c12)CC(C(=O)NC(C)C)CC3 (racemic) >= 6?
t

Decide: pIC50 of CC(C)Oc1cc(F)ccc1Nc1ncnc2[nH]c3c(c12)CS(=O)(=O)CC3 >= 6?
t

Decide: pIC50 of O=C(O)CNC(=O)C1CCc2[nH]c3ncnc(Nc4ccc(F)cc4OCCO)c3c2C1 (racemic) >= 6?
t

Decide: pIC50 of CC(C)COc1ccccc1Nc1ncnc2[nH]c3c(c12)CC(C(=O)NCCCS(C)(=O)=O)CC3 (racemic) >= 6?
t

Decide: pIC50 of Nc1cc(F)c([N+](=O)[O-])cc1Nc1ncnc2[nH]c3c(c12)CCCC3 >= 6?
f

Decide: pIC50 of COc1ccc(Cl)cc1Nc1ncnc2[nH]c3c(c12)CCCC3 >= 6?
t
